Data provenance: ChEMBL document CHEMBL5550184

# Tested on: GTPase KRas (Homo sapiens), P01116 [G12D]
# Sequence (P01116 whole entry G12D, looked up): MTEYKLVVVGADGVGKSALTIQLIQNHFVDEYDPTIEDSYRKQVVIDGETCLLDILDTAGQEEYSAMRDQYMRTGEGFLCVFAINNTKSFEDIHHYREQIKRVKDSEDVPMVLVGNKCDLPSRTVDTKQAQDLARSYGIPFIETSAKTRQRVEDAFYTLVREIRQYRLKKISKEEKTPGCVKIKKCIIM
# experiment-notes: Binding affinity to biotinylated KRAS G12D mutant (unknown origin) assessed as Kon incubated for 120 mins by SPR analysis
Positions of bridges follow the written chain, without caps; N, C: chain ends. Non-standard residues stand in square brackets, D forms with d. Residues, ends and D or L forms follow the SMILES beside them. *: point of attachment. hPhe(3-Cl-4-CF3) = N[C@@H](CCc1ccc(C(F)(F)F)c(Cl)c1)C(=O)O; NMeCha = CN[C@@H](CC1CCCCC1)C(=O)O; NMeChg = CN[C@H](C(=O)O)C1CCCCC1; NMeD = CN[C@@H](CC(=O)O)C(=O)O; NMehSer = CN[C@@H](CCO)C(=O)O; NMeA = CN[C@@H](C)C(=O)O; Piperidide = C1CCN(*)CC1; Ac5c = NC1(C(=O)O)CCCC1; Sar = CNCC(=O)O
Measured K values are reported for all entries that follow.

compound	measurement-target	K
CC[C@H](C)[C@@H]1NC(=O)[C@H](CCO)N(C)C(=O)C[C@@H](C(=O)N2CCCCC2)N(C)C(=O)[C@H](C2CCCCC2)N(C)C(=O)C2(CCCC2)NC(=O)[C@@H]2CCCN2C(=O)[C@H](CCc2ccc(C(F)(F)F)c(Cl)c2)NC(=O)CN(C)C(=O)[C@H](CC2CCCCC2)N(C)C(=O)CN(C)C(=O)CN(C)C1=O ([NMehSer]I[Sar][Sar][NMeCha][Sar][hPhe(3-Cl-4-CF3)]P[Ac5c][NMeChg][NMeD]-Piperidide; lactam N-11)	GTPase KRas (Homo sapiens), P01116 [G12D]	1.2 10^6/Ms
CC[C@H](C)[C@@H]1NC(=O)[C@H](CCOC)N(C)C(=O)C[C@@H](C(=O)N2CCCCC2)N(C)C(=O)[C@H](C2CCCCC2)N(C)C(=O)C2(CCCC2)NC(=O)[C@@H]2CCCN2C(=O)[C@H](CCc2ccc(C(F)(F)F)c(Cl)c2)NC(=O)CN(C)C(=O)[C@H](CC2CCCCC2)N(C)C(=O)CN(C)C(=O)CN(C)C1=O ([NMehSer](Me)I[Sar][Sar][NMeCha][Sar][hPhe(3-Cl-4-CF3)]P[Ac5c][NMeChg][NMeD]-Piperidide; lactam N-11)	GTPase KRas (Homo sapiens), P01116 [G12D]	1.1 10^6/Ms
CC[C@H](C)[C@@H]1NC(=O)[C@H](C)N(C)C(=O)C[C@@H](C(=O)N2CCCCC2)N(C)C(=O)[C@H](C2CCCCC2)N(C)C(=O)C2(CCCC2)NC(=O)[C@@H]2CCCN2C(=O)[C@H](CCc2ccc(C(F)(F)F)c(Cl)c2)NC(=O)CN(C)C(=O)[C@H](CC2CCCCC2)N(C)C(=O)CN(C)C(=O)CN(C)C1=O ([NMeA]I[Sar][Sar][NMeCha][Sar][hPhe(3-Cl-4-CF3)]P[Ac5c][NMeChg][NMeD]-Piperidide; lactam N-11)	GTPase KRas (Homo sapiens), P01116 [G12D]	1.2 10^6/Ms
CC[C@H](C)[C@@H]1NC(=O)[C@H](CC2CCCCC2)N(C)C(=O)C[C@@H](C(=O)N2CCCCC2)N(C)C(=O)[C@H](C2CCCCC2)N(C)C(=O)C2(CCCC2)NC(=O)[C@@H]2CCCN2C(=O)[C@H](CCc2ccc(C(F)(F)F)c(Cl)c2)NC(=O)CN(C)C(=O)[C@H](CC2CCCCC2)N(C)C(=O)CN(C)C(=O)CN(C)C1=O ([NMeCha]I[Sar][Sar][NMeCha][Sar][hPhe(3-Cl-4-CF3)]P[Ac5c][NMeChg][NMeD]-Piperidide; lactam N-11)	GTPase KRas (Homo sapiens), P01116 [G12D]	1 10^5/Ms
